- Tested on: MARIMO
- Experimental protocol: cell viability relative to vehicle control; higher = less cytotoxic;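 further: after 48 h exposure read by CellTiter-Glo luminescence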
- Condition info: 10 µM; SRSF2 genotype: SRSF2 wt/wt
Counter-ions that a name gives are not always drawn.
Attribute measured: cell viability (%)
Just the number please, in %, no unit attached.

Some solved cases for reference:
[[record]]
compound = "O=c1oc2cc(O)ccc2s1"
attribute_measured = "cell viability"
unit_text = "%"
quantitative_readout = 101

[[record]]
compound = "COc1ccc(CCCOC(Cn2ccnc2)c2ccc(OC)cc2)cc1 (stereo not drawn)"
attribute_measured = "cell viability"
unit_text = "%"
quantitative_readout = 14.8

[[record]]
compound = "CNCCC(Oc1ccc(C(F)(F)F)cc1)c1ccccc1 (stereo not drawn) [Fluoxetine HCl]"
attribute_measured = "cell viability"
unit_text = "%"
quantitative_readout = 75.2

[[record]]
compound = "Cc1ccc(NC(=O)C2(c3ccc4c(c3)OC(F)(F)O4)CC2)nc1-c1cccc(C(=O)O)c1"
attribute_measured = "cell viability"
unit_text = "%"
quantitative_readout = 113

[[record]]
compound = "COc1cc(O)c2c(=O)cc(-c3ccc(O)c(O)c3)oc2c1 [Hydroxygenkwanin]"
attribute_measured = "cell viability"
unit_text = "%"
quantitative_readout = 69.4

[[record]]
compound = "Cc1oncc1C(=O)Nc1ccc(C(F)(F)F)cc1 [Leflunomide]"
attribute_measured = "cell viability"
unit_text = "%"
quantitative_readout = 90.1

[[record]]
compound = "CC(C)C[C@H](NC(=O)[C@H](Cc1ccccc1)NC(=O)c1cnccn1)B(O)O"
attribute_measured = "cell viability"
unit_text = "%"
quantitative_readout = 0.93

[[record]]
compound = "CN(C)CCC(c1ccc(Br)cc1)c1ccccn1 (stereo not drawn) [Brompheniramine hydrogen maleate]"
attribute_measured = "cell viability"
unit_text = "%"
quantitative_readout = 90.7

[[record]]
compound = "COc1ccc2ccc(=O)oc2c1CC=C(C)C"
attribute_measured = "cell viability"
unit_text = "%"
quantitative_readout = 93.2

[[record]]
compound = "C=C1C(=O)O[C@H]2[C@H]1CC/C(C)=C/CC[C@@]1(C)O[C@@H]21 [Parthenolide ((-)-Parthenolide)]"
attribute_measured = "cell viability"
unit_text = "%"
quantitative_readout = 8.07


**Q:** Report cell viability for O=C(/C=C/c1ccc2ccccc2n1)c1ccncc1 please.
**A:** 0.4

**Q:** Quick one: cell viability for C=C1C2CCC(C2)C1(C)CCC=C(C)CO (stereo not drawn) ?
**A:** 94.3

**Q:** Fill blank: measured cell viability of the compound C/C=C(/C)C(=O)O[C@H]1[C@@H](OC(C)=O)c2c(ccc3ccc(=O)oc23)OC1(C)C [(+)-Praeruptorin A] is ____.
**A:** 93.9

**Q:** Form field: reported cell viability of N#CC[C@H](C1CCCC1)n1cc(-c2ncnc3[nH]ccc23)cn1
**A:** 91

###

Reported cell viability values are given for each entry in this list.
- Test system: OCI-AML2
- Experimental protocol: cell viability relative to vehicle control; higher = less cytotoxic
- Condition info: 10 µM; SRSF2 genotype: wt/wt
Reply with just the number (in %).

Some molecules with recorded cell viability:
[[record]]
molecule = "Cc1cc(C)nc(NS(=O)(=O)c2ccc(NC(=S)NC(=O)COc3ccc(Br)cc3Cl)cc2)n1"
attribute_measured = "cell viability"
quantitative_readout = 84.6

[[record]]
molecule = "COc1ccc2cc1Oc1ccc(cc1)C[C@H]1c3cc(c(OC)cc3CCN1C)Oc1c(O)c(OC)cc3c1[C@H](C2)N(C)CC3 [(+)-Fangchinoline]"
attribute_measured = "cell viability"
quantitative_readout = 0.71

[[record]]
molecule = "CCCCCC1C(=O)CCC1CC(=O)OCCC (stereo not given) [Prohydrojasmon]"
attribute_measured = "cell viability"
quantitative_readout = 118

[[record]]
molecule = "C=C(C)[C@@H]1CC[C@]2(C(=O)O[C@@H]3O[C@H](CO[C@@H]4O[C@H](CO)[C@@H](O[C@@H]5O[C@@H](C)[C@H](O)[C@@H](O)[C@H]5O)[C@H](O)[C@H]4O)[C@@H](O)[C@H](O)[C@H]3O)CC[C@]3(C)[C@H](CC[C@@H]4[C@@]5(C)CC[C@H](O[C@@H]6OC[C@H](O)[C@H](O)[C@H]6O[C@@H]6O[C@@H](C)[C@H](O)[C@@H](O)[C@H]6O)[C@@](C)(CO)[C@@H]5CC[C@]43C)[C@@H]12 [Anemoside B4]"
attribute_measured = "cell viability"
quantitative_readout = 105


Now, please, on to the next molecule.
**Q:** Lab note: need cell viability with OCI-AML2 for entry O=C(O)CCCN1CCC(O[C@@H](c2ccc(Cl)cc2)c2ccccn2)CC1 [Bepotastine Besilate] , please look it up.
**A:** 86.2
